B1: library; numbered along this chain (parent)
chain: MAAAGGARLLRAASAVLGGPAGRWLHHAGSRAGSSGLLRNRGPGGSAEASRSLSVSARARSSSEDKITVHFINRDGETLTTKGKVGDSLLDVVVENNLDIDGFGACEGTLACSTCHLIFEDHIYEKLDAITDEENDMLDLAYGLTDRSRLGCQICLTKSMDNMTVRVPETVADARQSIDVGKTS

variants of: B1; experiment: scaled log2 fold change in cell abundance, elesclomol vs control (0 = silent mean, 1 = nonsense mean) (scaled log2 ratio); higher = higher viability under elesclomol (loss of FDX1 cuproptosis function); conditions: with ABC1 FDX1 KO; elesclomol 5 nM; glucose 10 mM; 14 days;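 further: variant abundance is its share of total variant reads in each endpoint sample, from next-generation sequencing of the integrated ORF PCR-amplified out of genomic DNA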
// thresholds for scaled log2 fold change classes: class 1 = under -0.09, class 2 = from -0.09 up to 0.1, class 3 = 0.1 and over

Ask: # bin lookup: classify A111F by its scaled log2 fold change
Result: class 1

Ask: # bin lookup: classify G5A by its scaled log2 fold change
Result: class 1

Ask: # bin lookup: classify A174N by its scaled log2 fold change
Result: class 2

Ask: # bin lookup: classify V85W by its scaled log2 fold change
Result: class 3

Ask: # bin lookup: classify V180G by its scaled log2 fold change
Result: class 3

Ask: # bin lookup: classify A2R by its scaled log2 fold change
Result: class 3

Ask: # bin lookup: classify R51D by its scaled log2 fold change
Result: class 1

Ask: # bin lookup: classify Q153E by its scaled log2 fold change
Result: class 3

Ask: # bin lookup: classify K82G by its scaled log2 fold change
Result: class 1

Ask: # bin lookup: classify G36F by its scaled log2 fold change
Result: class 1

Ask: # bin lookup: classify I178A by its scaled log2 fold change
Result: class 1

Ask: # bin lookup: classify D161Q by its scaled log2 fold change
Result: class 2

Ask: # bin lookup: classify E77T by its scaled log2 fold change
Result: class 1

Ask: # bin lookup: classify F103V by its scaled log2 fold change
Result: class 3

Ask: # bin lookup: classify G143E by its scaled log2 fold change
Result: class 1

Ask: # bin lookup: classify R31H by its scaled log2 fold change
Result: class 1

Ask: # bin lookup: classify L25S by its scaled log2 fold change
Result: class 3

Ask: # bin lookup: classify R41Y by its scaled log2 fold change
Result: class 1

Ask: # bin lookup: classify A111P by its scaled log2 fold change
Result: class 3

Ask: # bin lookup: classify F119V by its scaled log2 fold change
Result: class 2

Ask: # bin lookup: classify R147H by its scaled log2 fold change
Result: class 2

Ask: # bin lookup: classify M137H by its scaled log2 fold change
Result: class 2

Ask: # bin lookup: classify T157S by its scaled log2 fold change
Result: class 3

Ask: # bin lookup: classify A13N by its scaled log2 fold change
Result: class 2

Ask: # bin lookup: classify F103A by its scaled log2 fold change
Result: class 3

Ask: # bin lookup: classify F71Y by its scaled log2 fold change
Result: class 3

Ask: # bin lookup: classify A28R by its scaled log2 fold change
Result: class 3

Ask: # bin lookup: classify A141Q by its scaled log2 fold change
Result: class 2

Ask: # bin lookup: classify E169P by its scaled log2 fold change
Result: class 1

Ask: # bin lookup: classify N162S by its scaled log2 fold change
Result: class 3

Ask: # bin lookup: classify Y142F by its scaled log2 fold change
Result: class 2

Ask: # bin lookup: classify G104D by its scaled log2 fold change
Result: class 3

Ask: # bin lookup: classify V85E by its scaled log2 fold change
Result: class 2

Ask: # bin lookup: classify S54Y by its scaled log2 fold change
Result: class 2

Ask: # bin lookup: classify V69L by its scaled log2 fold change
Result: class 1

Ask: # bin lookup: classify R166M by its scaled log2 fold change
Result: class 3

Ask: # bin lookup: classify L37G by its scaled log2 fold change
Result: class 3

Ask: # bin lookup: classify R11K by its scaled log2 fold change
Result: class 2

Ask: # bin lookup: classify D132I by its scaled log2 fold change
Result: class 1

Ask: # bin lookup: classify L79A by its scaled log2 fold change
Result: class 3

Ask: # bin lookup: classify E107L by its scaled log2 fold change
Result: class 1

Ask: # bin lookup: classify E134R by its scaled log2 fold change
Result: class 3

Ask: # bin lookup: classify D65I by its scaled log2 fold change
Result: class 3

Ask: # bin lookup: classify S35A by its scaled log2 fold change
Result: class 2

Ask: # bin lookup: classify M137A by its scaled log2 fold change
Result: class 1
